B1: ADAMTS4 (parent)
chain: HVDPEEPWSPCSARFITDFLDNGY

# Variants of: B1
# ASSAY PROTOCOL: protein stability index of a GFP-peptide fusion (GPS, HEK-293T) (PSI 1-6); higher = more stable;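 also: lentivirally expressed fusions sorted by FACS into six bins by GFP to DsRed ratio, PSI derived from sequencing read proportions per bin multiplied by bin number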
# ASSAY SETUP: c terminus: a fixed tail appended
The variants listed here are annotated with their protein stability index.
Respond numerically, and do not add a unit to the figure.

POLYMER SEQUENCE	protein stability index
HVDQEEPWSPCSARFITDFLDNGY [P4Q]	1.9
HVDPSEPWSPCSARFITDFLDNGY [E5S]	2.35

I am curious: what protein stability index value has been reported for HVDPEEPWSPCSARFITDFLLNGY [D21L] ? 1.6
